Test system: MALME-3M melanoma
ASSAY_DETAILS: NCI tumour cell line growth inhibition, 48 h

- MOLECULE: "CN=C1C=CC(=C(c2ccc(N(C)C)cc2)c2ccc(N(C)C)cc2)C=C1"
  READING_UNIT: "µM"
  READING_QUALIFIER: "="
  TGI: 1.95
- MOLECULE: "CC(C)c1cccc(C(C)C)c1N1C(=O)C(=O)C(c2nc3ccccc3o2)C(=O)C1=O"
  READING_UNIT: "µM"
  READING_QUALIFIER: ">"
  TGI: 100
- MOLECULE: "CC(C)CCOC(=O)NC(Nc1ccc(F)cc1)(C(F)(F)F)C(F)(F)F"
  READING_UNIT: "µM"
  READING_QUALIFIER: ">"
  TGI: 100
- MOLECULE: "O=[Se](O)O"
  READING_UNIT: "µM"
  READING_QUALIFIER: ">"
  TGI: 100
- MOLECULE: "O=C(N=Nc1ccccc1Cl)NNc1ccccc1Cl"
  READING_UNIT: "µM"
  READING_QUALIFIER: ">"
  TGI: 100
- MOLECULE: "COc1ccc2cc(C(C)C(=O)N3C(=O)OCC3(C)C)ccc2c1 (stereo not given)"
  READING_UNIT: "µM"
  READING_QUALIFIER: ">"
  TGI: 100
- MOLECULE: "CSc1cnc2ccccc2c1Sc1c[nH]c2ccccc2c1=O"
  READING_UNIT: "µM"
  READING_QUALIFIER: "="
  TGI: 37.6
- MOLECULE: "CC1(C)CC[C@]2(C(=O)O)CC[C@]3(C)[C@H](C(=O)C=C4[C@@]5(C)C=C(C#N)C(=O)C(C)(C)[C@@H]5CC[C@]43C)[C@@H]2C1"
  READING_UNIT: "µM"
  READING_QUALIFIER: "="
  TGI: 1.55
- MOLECULE: "COc1ccccc1S(=O)(=O)Nc1ccc2c3c(cc(CCC(=O)NCCCCNc4cccc5c4C(=O)N(C4CCC(=O)NC4=O)C5=O)cc13)C(=O)N2C (stereo not given)"
  READING_UNIT: "µM"
  READING_QUALIFIER: "="
  TGI: 0.559
- MOLECULE: "CCNc1cc2c3c(c1)CCN3CCC2"
  READING_UNIT: "µM"
  READING_QUALIFIER: ">"
  TGI: 10
